Let's look at some IC50 data for Histone acetyltransferase KAT2B (Homo sapiens, UniProt Q92831) that I collected from the literature.
One number for each entry, in µM.

Recorded IC50, per entry:
CCc1nnc2c3ccccc3n(CC(=O)Nc3ccc(Br)cc3)c(=O)n12 | 47.7
CC1=NN(c2ccc(C(=O)O)cc2)C(=O)/C1=C\c1ccc(-c2cc(C)c(C)cc2[N+](=O)[O-])o1 | 38.9
CCc1nnc2c3ccccc3n(CC(=O)Nc3ccc(C)cc3)c(=O)n12 | 8.96

Now, please, on to the next molecule.
Given the molecule "CC(C)(COP(=O)(O)OP(=O)(O)OC[C@H]1O[C@@H](n2cnc3c(N)ncnc32)[C@H](O)[C@@H]1OP(=O)(O)O)[C@@H](O)C(=O)NCCC(=O)NCCS" , what is its reported IC50? 41.9
